B1: ZNF511 (parent)
chain: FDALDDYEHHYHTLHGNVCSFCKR

# Variants of: B1
# assay-explanation: protein stability index of a GFP-peptide fusion (GPS, HEK-293T) (PSI 1-6); higher = more stable;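 further: lentivirally expressed fusions sorted by FACS into six bins by GFP to DsRed ratio, PSI derived from sequencing read proportions per bin multiplied by bin number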
# stated-conditions: c terminus: a fixed tail appended
Reported protein stability index is given for each of the following variants.
The response must contain the number and no unit.

Past entries and their recorded results:
biosequence="FDALDDYEHHWHTLHGNVCSFCKR [Y11W]" test_result=2.34
biosequence="FDALDDYEHHYHTLHGNLCSFCKR [V18L]" test_result=3.83
biosequence="FDALDDYEYHYHTLHGNVCSFCKR [H9Y]" test_result=2.65
biosequence="FDALDDYEHHGHTLHGNVCSFCKR [Y11G]" test_result=4.01
biosequence="FDAMDDYEHHYHTLHGNVCSFCKR [L4M]" test_result=3.81
biosequence="FDALDDYEHHYHTLHGNVASFCKR [C19A]" test_result=3.11
biosequence="FDALDDYEHHYHTLHGNVCSFIKR [C22I]" test_result=2.26
biosequence="FDALDDYEHHYHTLHINVCSFCKR [G16I]" test_result=3.15

Item FLALDDYEHHYHTLHGNVCSFCKR [D2L] has what recorded protein stability index?
3.18

Now try FDALDSYEHHYHTLHGNVCSFCKR [D6S] .
3.95

Now try FDALDDYEHHYHTLHGNVCSFCPR [K23P] .
3

Now try FDALDDYEHHYHTLHGSVCSFCKR [N17S] .
3.98

Now try FDALDDYEWHYHTLHGNVCSFCKR [H9W] .
2.67

Now try FDALDDYEHHYHGLHGNVCSFCKR [T13G] .
4.15

Now try FDFLDDYEHHYHTLHGNVCSFCKR [A3F] .
3.19

Now try FDALDDYEHHYHTLHGNVCSYCKR [F21Y] .
3.64

Origin of measurements: the supplement of paper PMC10567573
